Hey, just so you know, these numbers are from patent US20250134855A1.

Assay Comment: Study MPKF: plasma pharmacokinetics of MDMA and MDA, single 120 mg MDMA·HCl, fasted/fed
Format: in vivo, human
Measurement Context: human, plasma, oral, 120 mg, fasted treatment group; .5 h; read-out: PK plasma concentration, Median
Measured Quantity: concentration at 0.5 h (ng/mL)
The answer is to be given in ng/mL; state only the numeric part.

Need concentration at 0.5 h, item CNC(C)Cc1ccc2c(c1)OCO2 (stereo not shown)
0

###

Assay Comment: Study MPKF: plasma pharmacokinetics of MDMA and MDA, single 120 mg MDMA·HCl, fasted/fed
Type: in vivo, human
Measurement Context: human, plasma, po, 120 mg, Fasted N = 15; 120 mg MDMA·HCl; preliminary; arithmetic mean; read-out: AUC0-72
Measured Quantity: AUC(0-t) (ng·h/mL)
The response must be a number in ng·h/mL with no trailing unit.

Consider the compound CNC(C)Cc1ccc2c(c1)OCO2 (stereo not shown) and give its measured AUC(0-t).
3370

###

Assay Comment: Particle size of MDMA measured by laser diffraction
Type: physicochemical
Assign labels as follows, please: True for Dv50 below 200 μm; False for Dv50 equal to or exceeding 200 μm.

CNC(C)Cc1ccc2c(c1)OCO2.Cl (stereo not drawn) [CJS194-3] | True
CNC(C)Cc1ccc2c(c1)OCO2.Cl (stereo not drawn) [CJS194-2] | True

Is Dv50 strictly under 200 μm for the entry CNC(C)Cc1ccc2c(c1)OCO2.Cl (stereo not drawn) [CJS194-4] ?
True

Consider CNC(C)Cc1ccc2c(c1)OCO2.Cl (stereo not drawn) [CJS194-1] . Does its Dv50 lie strictly below 200 μm?
True

Is the reported Dv50 for CNC(C)Cc1ccc2c(c1)OCO2.Cl (stereo not drawn) [CJS194-5] strictly below 200 μm?
True

Consider the molecule CNC(C)Cc1ccc2c(c1)OCO2.Cl (stereo not drawn) [Input 201101] . Is its Dv50 strictly less than 200 μm?
False

###

Assay Comment: Study MPKF: plasma pharmacokinetics of MDMA and MDA, single 120 mg MDMA·HCl, fasted/fed
Format: in vivo, human
Measurement Context: human, plasma, oral, 120 mg, fed treatment group; 48 h; read-out: PK plasma concentration, Median
Experimental: The MPKF was a Phase 1, open-label, randomized sequence, multi-dose, 2-period crossover food effect study in 16 healthy individuals. The MPKF study evaluated plasma concentrations of both MDMA and the active metabolite 3,4-methylenedioxyamphetamine (MDA). […] Sample Collection: Blood samples were collected at various time points up to 72 hours after dosing. The samples were analyzed using validated liquid chromatography-tandem mass spectrometry (LC-MS/MS) methods. […]
Measured Quantity: concentration at 48 h (ng/mL)
Respond numerically; units are ng/mL and should not be typed.

Quick one: concentration at 48 h of CNC(C)Cc1ccc2c(c1)OCO2 (stereo not shown) ?
0

###

Assay Comment: Study MPKF: plasma pharmacokinetics of MDMA and MDA, single 120 mg MDMA·HCl, fasted/fed
Type: in vivo, human
Measurement Context: human, plasma, oral, 120 mg, fasted treatment group; 4 h; read-out: PK plasma concentration, Mean
Measured Quantity: concentration at 4 h (ng/mL)
Write the number in ng/mL without appending the unit.

Would you mind telling me what concentration at 4 h value was observed for CNC(C)Cc1ccc2c(c1)OCO2 (stereo not shown) [MDMA, 3,4-methylenedioxymethamphetamine] ?
225
